# System: ISC-enriched organoids
# procedure.details: Primary screen, 384-well 2.5-D organoid differentiation (ENR+CD, 6 days): carbachol-induced lysozyme secretion (LYZ.S)
# Assay type: cell-based, murine
# test.settings: standard z score; primary screen; 1st of the 4 dose lines of the treatment (dose not given)
Entries and their Z.LYZ.S
Give the figure by itself; no unit, no explanation.

Input: # lookup: Z.LYZ.S of Cc1cc(Nc2cc(CN3CCOCC3)c3nc(C)c(Cc4ccc(Cl)cc4F)n3n2)n[nH]1
Output: 0.794

---
Input: # lookup: Z.LYZ.S of C[C@@H]1CN(CC(=O)Nc2ccc3c(c2)Cc2cccc(-c4cc(=O)cc(N5CCOCC5)o4)c2S3)C[C@H](C)O1
Output: 1.490

Input: # lookup: Z.LYZ.S of N#Cc1ccc(C(c2ccc(C#N)cc2)n2cncn2)cc1
Output: 0.258

Input: # lookup: Z.LYZ.S of CCCC(=O)Nc1cccc(NC(=O)c2ccccc2Br)c1
Output: 0.113

Input: # lookup: Z.LYZ.S of Nc1nc(OCc2cc(Br)cs2)c2[nH]cnc2n1
Output: −0.528

Input: # lookup: Z.LYZ.S of COc1ccc(-c2cnc3c(-c4cccc5ncccc45)cnn3c2)cc1
Output: 0.608

Input: # lookup: Z.LYZ.S of CC(C)c1ccc(NC(=O)Cn2cnc3c2c(=O)n(C)c(=O)n3C)cc1
Output: 0.584

Input: # lookup: Z.LYZ.S of Oc1ccc2ccccc2c1SSc1c(O)ccc2ccccc12
Output: 0.413

Input: # lookup: Z.LYZ.S of CCN(CC)CC(=O)Nc1c(C)cccc1C
Output: 0.537

Every entry's value here was drawn from patent US20230398130A1.
